Where do the numbers come from? From PubChem BioAssay (NCI).

- System: SNB-75 CNS
- Protocol Notes: NCI-60 one-dose screen, 48 h (100 = growth as untreated, 0 = no growth, -100 = all killed)
- Measurement Context: 10 µM unless noted
About 83,000 compounds went through this panel and 20% of them were active in at least one assay; those are over-represented in the sample as a whole.
One threshold, 80%, splits the recorded growth values: lower ones are condition met, equal or higher ones are condition not met.

Task item: Hello, is growth of the following compound strictly smaller than 80%? CCN1C(=O)/C(=C/N2N=C(c3ccc(Cl)cc3)CC2c2ccc(OC)cc2)SC1=S (stereo unspecified)
Reply: condition not met

Task item: What do we get for CCN(CC)CC(=O)Nc1c(C)ccc(N)c1C ?
Reply: condition not met

Task item: // repeat for C=C1C(=O)O[C@H]2[C@H]1CC/C(COC(=O)NCc1c[nH]c3ccc(OC)cc13)=C\CC[C@@]1(C)O[C@@H]21 and report
Reply: condition met

====

Here the recorded growth is given for each entry.
- Test system: COLO 205 colon
- Protocol Notes: NCI-60 one-dose screen, 48 h (100 = growth as untreated, 0 = no growth, -100 = all killed)
- Measurement Context: 10 µM unless noted
The panel holds about 83,000 compounds, 20% with a hit somewhere; the sample as a whole holds those more often.
Express it in %; write the number only.

Cc1[nH]c2ccccc2c1C1=CC(=O)C=CC1=O: 55.7
COC(=O)OC1C(O[C@H]2C[C@H]3[C@@H]4CC=C5C[C@@H](O)CC[C@]5(C)[C@H]4CC[C@]3(C)[C@H]2[C@H](C)C(=O)CCC(C)C)OCC(O)C1OC1OCC(O)C(O)C1OC(=O)c1ccc(OC)cc1 (stereo not given in full): -52.4
CCn1c(Cc2ccccc2Nc2c(Cl)cccc2Cl)nnc1SCC(=O)Nc1ccccc1C(F)(F)F: 99.1
O=[N+]([O-])c1ccc(N/N=C\c2ccc(O)cc2O)nc1: 65.9
CCN(CC)c1ccc(/C=N/N=C(N)N)cc1: 30.2
Cc1ccccc1C1CC(=O)c2ccccc2C1C (stereo not given): 104
COc1cc(CN(c2ccc(C)cc2)C2OC(=O)c3ccccc32)cc(OC)c1OC (stereo not given): -45.5
CC(=O)Nc1ccc(/C=N/N2CCCCCC2)cc1: 110

Task item: Endpoint output: growth of O=C(/C=C/c1ccc(F)cc1)N1CCN(C(=O)/C=C/c2ccc(C(F)(F)F)cc2)CC1 . Value?
Reply: 126

Task item: Queued: COc1cc(CN2CCC(N3CCCC3=O)c3ccccc32)cc(OC)c1OC (stereo not given)
Reply: 106

====

- Tested on: IGROV1 ovarian
- Protocol Notes: NCI-60 one-dose screen, 48 h
- Measurement Context: 10 µM unless noted
Compounds without any hit were thinned out: in the full panel of roughly 83,000, 20% have a hit. Active and inactive are the calls of the source. Rule for the calls: active = growth percent below 10; inactive = the rest.
Permitted responses: class 1 (active), class 0 (inactive)

CC1(C)CN(CCNc2nccc(-c3c(-c4cccc(O)c4)nc4sccn34)n2)S(=O)(=O)N1: class 0
CS(=O)(=O)c1ccc(C(=O)N/N=C/c2ccccc2O)cc1: class 0
O=C(NO)c1ccc(CNc2cccc3nc(C4CC4)n(-c4ccccc4)c(=O)c23)cc1: class 1
COc1ccc(-c2nc(SCCC(C)C)nc(Nc3ccc(C(=O)O)cc3)c2C#N)cc1: class 0
COc1cc(/C=C2\CN(C(=O)OC(C)(C)C)C/C(=C\c3ccc(O)c(OC)c3)C2=O)ccc1O: class 0
CCN(CC)Cc1cc(Nc2ccnc3ccc(OC)cc23)ccc1O: class 0
CC(C)OC1OC(OC(C)C)C(OC(C)C)OC1OC(C)C (centres undefined): class 0
CCOC(=O)N1C2CCC(C2)N1C(=O)OCC: class 0

Task item: Hi, do you know how COC(=O)[C@H](Cc1cn(C)cn1)NC(=O)[C@H](CC(C)C)NC(=O)Nc1cc(C(F)(F)F)cc(C(F)(F)F)c1 came out in this test?
Reply: class 1

Task item: Also O=C(N/N=C/c1ccc([N+](=O)[O-])cc1)c1ccccc1Nc1ccnc(C(F)(F)F)c1 , if possible.
Reply: class 0

Task item: // next record CCCCCCCCCCCC1=NC(C)(C)CN1CCO
Reply: class 0

Task item: Same thing, different compound: COc1ccc(C(=O)N2N=C(c3ccc(F)cc3)CC2c2cn(-c3ccccc3)nc2-c2ccccc2)cc1 (centres undefined)
Reply: class 0

Task item: Also need N=C(N)c1ccc(NCCNc2ccc(C(=N)N)cc2)cc1 , thanks.
Reply: class 0

Task item: Request: Cc1ccc(C(=O)CC(=O)C(F)(F)C(F)(F)C(F)(F)F)s1
Reply: class 0

Task item: Could you do the same for O=P(O)(O)C(O)(Cc1cccnc1)P(=O)(O)O , please?
Reply: class 0

Task item: Could you do the same for FC(F)(F)c1cc(-c2nnc3n2N=C(Cl)CS3)cc(C(F)(F)F)c1 , please?
Reply: class 0

Task item: Same lookup for COCc1nc(NS(=O)(=O)c2ccc(N)cc2)nc(C)c1Br , please.
Reply: class 0

Task item: // repeat for CCc1onc(-c2ccc(OC)cc2)c1-c1ccccc1OCCN(CC)CC and report
Reply: class 0

Task item: Next up: COc1cc(CN2CCC(N3CCCC3=O)c3ccccc32)cc(OC)c1OC (centres undefined)
Reply: class 0

Task item: Now consider COc1ccc(/C=C/c2nc3ccccc3c(=O)n2-c2ccc(C#Cc3ccc(C(C)(C)C)cc3)cc2C)c(OC)c1 .
Reply: class 0

Task item: Also need CCCCOC(=O)c1cc(O)c(O)c(O)c1 , thanks.
Reply: class 0

Task item: Can you handle COc1cccc(N2CCN(c3ncnc4cc[nH]c34)CC2)c1 next?
Reply: class 0

Task item: Also Clc1ccc(Cl)c(N=Cc2ccc3c(c2)OCO3)c1 ?
Reply: class 0

Task item: Same read-out for Oc1c(C(Nc2cccc3ccccc23)c2ccccc2)ccc2cccnc12 (centres undefined) ?
Reply: class 0

Task item: What do we get for CCc1c(C)c2ccc(O)c(-c3cc(-c4ccccc4)c(C#N)c(=O)[nH]3)c2oc1=O ?
Reply: class 0

Task item: Also Cc1ccc(C(CN(C)C)C(=O)c2ccccc2)cc1 (centres undefined) ?
Reply: class 0

Task item: Again, but for CC1=CC(=O)OC1C/C=C(\C)CCC1[C@@]2(C)CCC[C@@](C)(C(=O)O)C2CC[C@@]1(C)O (some centres undefined)
Reply: class 0

Task item: Here is the next compound: CS(=O)(=O)c1ccc(C(=O)N/N=C/c2ccccc2Cl)cc1
Reply: class 0

Task item: Then O=C(Nc1cccc(-n2ccc3c(NC(=O)c4ccccc4)nccc32)c1)c1ccc(Cl)c(Cl)c1 ?
Reply: class 1

Task item: Record: Cc1c(C(=O)Nc2ccccc2F)sc2c(=O)[nH]cnc12
Reply: class 0

Task item: Quick one: NC(N)=N/N=C/c1cccc(Cl)c1Cl
Reply: class 0

====

- System: UACC-257 melanoma
- Protocol Notes: NCI-60 one-dose screen, 48 h (100 = growth as untreated, 0 = no growth, -100 = all killed)
- Measurement Context: 10 µM unless noted
Compounds without any hit were thinned out: in the full panel of roughly 83,000, 20% have a hit.
Class True: growth at least 90%. Class False: growth below 90%.

Field: example entries. Status: answers known.
Cc1ccc(NC(=O)c2sc3nc4c(cc3c2N)C(=O)CCC4)cc1Cl: True
CCOC(=O)C1=C(C(=O)OCC)N(c2cc(OC)c(OC)c(OC)c2)C(N)=C(C#N)C1c1cc(=O)[nH]c2ccccc12 (stereo unspecified): True
CCSc1cnnc2ccccc12: True

With those in mind, consider the next compound.
Task item: Threshold query (growth >= 90%) on COc1ccc(/C=C(\C#N)c2cc(OC)c(OC)c(OC)c2)cc1
Reply: False

====

Below, each entry is listed alongside its reported growth.
- Test system: NCI-H23 lung
- Protocol Notes: NCI-60 one-dose screen, 48 h (100 = growth as untreated, 0 = no growth, -100 = all killed)
- Measurement Context: 10 µM unless noted
About 83,000 compounds went through this panel and 20% of them were active in at least one assay; those are over-represented in the sample as a whole.
Reply numerically in %, unit not repeated.

Example results:
Cc1cccc2nc3ccccc3c(Nc3ccc(NS(C)(=O)=O)cc3)c12: 57.8
Cc1ccccc1Nc1n[nH]c(Cc2ccccc2)n1: 102

Kindly review the next molecule as well.
Task item: // returns reported growth for input CCCCCCCCCCCCNC(=O)N[C@H](C(=O)N[C@H]1/C=C/OCCNC(=O)/C=C/[C@H](C(C)C)NC1=O)C(C)C
Reply: 60.4

====

- Test system: UO-31 renal
- Protocol Notes: NCI-60 one-dose screen, 48 h (100 = growth as untreated, 0 = no growth, -100 = all killed)
- Measurement Context: 10 µM unless noted
This is part of a sample that, as a whole, favours compounds with a hit. Of some 83,000 tested, about 20% had one in any assay.
Label condition not met if growth falls below 70%; label condition met in every other case.

Solved entries (count: 2):
COc1ncnc2[nH]cc(CN3CCN(c4ccc(F)cc4)CC3)c12: condition met
COc1cc(C)c(Cl)cc1C1=NN(c2ccc(S(N)(=O)=O)cc2)C(/C=C/c2ccccc2)C1 (stereo not given): condition not met

Task item: Decide: is the reported value of growth for CCCCc1nc(Cl)c(C2CC(c3ccc(S(N)(=O)=O)cc3)=NN2c2cc(Cl)cc(Cl)c2)[nH]1 (stereo not given) equal to or greater than 70%?
Reply: condition not met

Task item: Next compound: CCN(CC)c1ccc(/C=N/NC(=O)c2ccc(S(C)(=O)=O)cc2)c(O)c1
Reply: condition not met
